biological target: S1 variant B.1.1.7: UK (Acro) spike protein (SARS-CoV-2, UniProt P0DTC2 16-1213); assay: SPR (Carterra LSA); […]; 1:1 model; […]
endpoint-label: kon (M⁻¹ s⁻¹)
Note: unit M⁻¹ s⁻¹ is implicit; provide only the numeric part.

Entry under test: Antibody 1-16 (Fc fusion) EVQLVESGGGLVQPGGSLRLSCAASGRTYAMGWFRQAPGKERELVAEITAGGSTYYADSVKGRFTISADNSKNTAYLQMNSLKQEDTAVYYCAVDGPFGWGQGTLVTVSS . Its kon was 350000

kon recorded for this binder, Antibody 1-8 (Fc fusion) EVQLVESGGGLVQPGGSLRLSCAASGRTLSRYTMGWFRQAPGKEREFVASITSGGTTNYADSVKGRFTISADNSKNTAYLQMNSLKPEDTAVYYCAKEDVGKPFDWGQGTLVTVSS , is 310000

Memo: Antibody 1-10 (Fc fusion) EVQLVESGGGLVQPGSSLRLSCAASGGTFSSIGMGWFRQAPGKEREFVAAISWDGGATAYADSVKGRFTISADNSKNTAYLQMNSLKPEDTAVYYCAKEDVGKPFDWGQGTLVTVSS , reported kon: 270000

So, Antibody 1-1 (Fc fusion) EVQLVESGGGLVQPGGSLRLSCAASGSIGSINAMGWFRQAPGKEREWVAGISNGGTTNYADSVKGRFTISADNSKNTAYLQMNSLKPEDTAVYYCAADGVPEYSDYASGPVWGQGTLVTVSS ? Its kon was 600000

GET /value?item= Antibody 1-7 (Fc fusion) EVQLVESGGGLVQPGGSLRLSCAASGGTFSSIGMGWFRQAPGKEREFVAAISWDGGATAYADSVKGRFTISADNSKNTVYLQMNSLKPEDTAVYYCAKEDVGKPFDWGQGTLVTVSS &field=kon returns 360000

Data point: Antibody 1-13 (Fc fusion) EVQLVESGGGLVQPGGSLRLSCAASGRTTFSSYTMGWFRQAPGKEREFVASITRSGVLNYADSVKGRFTISADNSKNTAYLQMNSLKPEDTAVYYCAKEDVGKPFDWGQGTLVTVSS ; kon = 170000

Antibody 1-15 (Fc fusion) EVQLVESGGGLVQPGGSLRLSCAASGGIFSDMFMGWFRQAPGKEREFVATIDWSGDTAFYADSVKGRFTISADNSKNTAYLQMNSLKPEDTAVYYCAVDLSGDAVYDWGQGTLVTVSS has a reported kon of 290000
